Reference for the values: ChEMBL document CHEMBL2028040

Listing of recorded IC50 by entry.
test: MMV: Cytotoxicity against human fibroblasts (MRC-5) cells.; conditions: MRC-5 cells (human fibroblasts)

Examples from the recorded data:
molecule: O=C(Nc1ccc(-c2nc3ccccc3[nH]2)cc1)c1ccc(Cl)c(Cl)c1
reported value: > 32 µM
--
molecule: CCCOCc1cc(CN2CCN(c3cccc(Cl)c3)CC2)c(O)c2ncccc12
reported value: 1.67 µM
--
molecule: COc1ccc2nc(C)cc(Nc3cccc(O)c3)c2c1
reported value: > 32 µM

Would you kindly share the measured IC50 for Cc1cc(N2CCCC2)nc(Nc2ccc(NC(=O)CCc3ccccc3)cc2)n1 ?
5.38 µM

Query: IC50; subject: O=c1c2c([nH]c3ccccc13)CCCC2
> 32 µM

Need IC50, item Brc1ccc(Nc2nc3ccccc3nc2Nc2ccc(Br)cc2)cc1
5.88 µM

# lookup: IC50 of Cc1cc(Nc2ccc(OCc3ccccc3)cc2)nc2cc(O)ccc12
14 µM
